molecular target: human orexin-2 receptor (Homo sapiens (Human)); test: FLIPR Ca2+ flux assay, hOX2R; settings: CHO cells expressing human orexin-2 receptor; agonist 70 pM Ala-6,12 orexin-A
recorded-endpoint: log10(IC50) (log10 of the value in µM)
Please interpret these as log10 of IC50 where IC50 is in µM.

Worked cases, log10(IC50) given:
C[C@@H]1CC[C@@H](c2nc(CCF)c(-c3ccccc3)o2)CN1C(=O)c1ccccc1-n1nccn1; -1.21
CC(C)c1oc([C@@H]2CC[C@@H](C)N(C(=O)c3ccccc3-n3nccn3)C2)nc1C(C)(C)O; -1.77
Cc1oc([C@@H]2CC[C@@H](C)N(C(=O)c3ccccc3C3(C#N)CC3)C2)nc1C(C)(C)O; -1.78
C[C@@H]1CC[C@@H](c2nc(CO)c(-c3ccccc3)o2)CN1C(=O)c1ccccc1-n1nccn1; 0.07

The compound listed as `C[C@@H]1CC[C@@H](c2nc(CC(C)(C)O)c(-c3ccccc3)o2)CN1C(=O)c1ccccc1-n1nccn1` has a reported log10(IC50) of -1.21

Given item `C[C@@H]1CC[C@@H](c2ncc(-c3ccccc3)o2)CN1C(=O)c1ccccc1-n1nccn1` , the value recorded as its log10(IC50) is -0.95

---

target: hOX1R (Homo sapiens); assay: FLIPR Ca2+ flux assay, hOX1R; assay type: cell-based
recorded-endpoint: IC50

The observed IC50 for `C[C@@H]1CC[C@@H](c2nc(Br)co2)CN1C(=O)c1ccccc1-n1nccn1` when tested with hOX1R (Homo sapiens) stands at ~7.9 µM

---

target: human orexin-2 receptor (Homo sapiens (Human), UniProt O43614); assay: FLIPR Ca2+ flux assay, hOX2R; settings: CHO cells expressing human orexin-2 receptor; agonist 70 pM Ala-6,12 orexin-A
Sequence (O43614 whole entry): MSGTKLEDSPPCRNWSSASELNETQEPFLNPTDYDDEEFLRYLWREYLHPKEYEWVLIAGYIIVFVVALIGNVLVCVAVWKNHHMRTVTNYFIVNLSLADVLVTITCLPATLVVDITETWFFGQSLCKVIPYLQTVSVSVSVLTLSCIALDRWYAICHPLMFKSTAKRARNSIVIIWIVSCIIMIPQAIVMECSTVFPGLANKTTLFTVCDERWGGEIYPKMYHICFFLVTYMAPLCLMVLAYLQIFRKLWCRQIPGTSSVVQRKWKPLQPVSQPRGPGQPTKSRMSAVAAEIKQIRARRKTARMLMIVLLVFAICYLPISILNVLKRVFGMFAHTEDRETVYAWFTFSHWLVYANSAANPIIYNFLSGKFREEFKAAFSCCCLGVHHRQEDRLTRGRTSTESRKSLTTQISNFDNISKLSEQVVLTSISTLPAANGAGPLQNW
pIC50: −log10 of the molar value.
Label true (1) for high-side pIC50 (at or above 7) and false (0) for low-side pIC50 (below it).

Examples with answers:
Cc1cc(C(=O)N2C[C@H](c3nc(C(C)(C)O)c(C)o3)CC[C@H]2C)c(-n2nccn2)s1; true (1)
Cc1ccc(-n2nccn2)c(C(=O)N2C[C@H](c3ncc(C)o3)CC[C@H]2C)c1; false (0)
C[C@@H]1CC[C@@H](c2ncc(C(C)(C)C)o2)CN1C(=O)c1ccccc1-n1nccn1; true (1)
CC[C@@](C)(O)c1nc([C@@H]2CC[C@@H](C)N(C(=O)c3cscc3-n3nccn3)C2)oc1C; true (1)
COC(C)(C)Cc1nc([C@@H]2CC[C@@H](C)N(C(=O)c3ccccc3-n3nccn3)C2)oc1-c1ccccc1; false (0)

Now, please, on to the next compound.
Query: Form field: pIC50 at least 7? Entry: `C[C@@H]1CC[C@@H](c2nc(C(C)(C)O)c(C(F)F)o2)CN1C(=O)c1ccccc1-n1nccn1`
Reply: true (1)

---

biological target: human orexin-2 receptor (Homo sapiens (Human), UniProt O43614); assay: FLIPR Ca2+ flux assay, hOX2R; conditions: CHO cells expressing human orexin-2 receptor; agonist 70 pM Ala-6,12 orexin-A
recorded-endpoint: IC50
State the value, then name its unit.

# example entries with known answers
CC(O)c1nc([C@@H]2CC[C@@H](C)N(C(=O)c3ccccc3-n3nccn3)C2)oc1-c1ccccc1 (single isomer, unassigned) [Example 65]; 130 nM
Cc1oc([C@@H]2CC[C@@H](C)N(C(=O)c3ccccc3C3(C#N)CCOCC3)C2)nc1C(C)(C)O; 500 nM
COC(=O)c1ccccc1C(=O)N1C[C@H](c2nc(C(C)(C)O)c(C)o2)CC[C@H]1C; 23 nM

Kindly consider the entry below.
Data point: `Cc1oc([C@@H]2CC[C@@H](C)N(C(=O)c3cccc4ccnn34)C2)nc1C(C)(C)O` ; IC50 = 110 nM

---

biological target: UniProt O43613; assay: FLIPR Ca2+ flux assay, hOX1R; format: cell-based; settings: CHO cells; agonist 70 pM Ala-6,12 orexin-A; rat orexin-1 receptor; read-out: hOX1R FLIPR IC50
pIC50: −log10 of the molar value.
Could you label it met if measured pIC50 is 7 or higher, and not met otherwise?

Would you please look over these solved cases?
C[C@@H]1CC[C@@H](c2ncc(-c3ccccc3)o2)CN1C(=O)c1ccccc1-n1nccn1 [Example 74]; met
COCCc1ccccc1C(=O)N1C[C@H](c2nc(C(C)(C)O)c(C)o2)CC[C@H]1C [Example 41]; not met
CC(C)c1oc([C@@H]2CC[C@@H](C)N(C(=O)c3ccccc3-n3nccn3)C2)nc1C(C)(C)O [Example 15]; met
C[C@@H]1CC[C@@H](c2nc(C(C)(C)O)c(C(F)F)o2)CN1C(=O)c1ccccc1-n1nccn1 [Example 53]; not met
C[C@@H]1CC[C@@H](c2nc(C(C)(C)C)co2)CN1C(=O)c1ccccc1-n1nccn1 [Example 16]; not met

Attention now shifts to the item below.
Query: Assess whether reported pIC50 for C[C@@H]1CC[C@@H](c2ncc(C3CCC3)o2)CN1C(=O)c1ccccc1-n1nccn1 [Example 75] sits at 7 or higher.
Reply: met

---

molecular target: hOX1R (Homo sapiens, UniProt O43613); assay: FLIPR Ca2+ flux assay, hOX1R; format: cell-based; details: CHO cells; agonist 70 pM Ala-6,12 orexin-A; rat orexin-1 receptor; read-out: hOX1R FLIPR IC50
recorded-endpoint: IC50 (nM)
Hi! Could you send only the number? It should be in nM, unit omitted.

C[C@@H]1CC[C@@H](c2nc(C3CC3)co2)CN1C(=O)c1ccccc1-n1nccn1; 700
C[C@@H]1CC[C@@H](c2nc(C(C)(C)O)c(C(F)(F)F)o2)CN1C(=O)c1ccccc1-n1nccn1; 240

Continue with the compound presented below.
IC50 for `C[C@@H]1CC[C@@H](c2nc(CCO)c(-c3ccccc3)o2)CN1C(=O)c1ccccc1-n1nccn1` is 38

---

biological target: hOX1R (Homo sapiens); assay: FLIPR Ca2+ flux assay, hOX1R; format: cell-based; details: CHO cells; agonist 70 pM Ala-6,12 orexin-A; rat orexin-1 receptor; read-out: hOX1R FLIPR IC50
recorded-endpoint: pIC50
# pIC50 is unitless: minus log10 of the molar concentration; print number only

Solved entries (count: 3):
CCC(C)(O)c1nc([C@@H]2CC[C@@H](C)N(C(=O)c3ccsc3-n3nccn3)C2)oc1C (stereo in doubt) [Example 48]; 5.74
Cc1oc([C@@H]2CC[C@@H](C)N(C(=O)c3ccccc3-n3nccn3)C2)nc1C(C)(C)O [Example 13]; 6.09
C[C@@H]1CC[C@@H](c2nc(-c3cccc(F)n3)co2)CN1C(=O)c1ccccc1-n1nccn1 [Example 6]; 6.17

pIC50 recorded for this compound, COC(=O)c1ccccc1C(=O)N1C[C@H](c2nc(C(C)(C)O)c(C)o2)CC[C@H]1C [Example 33] , is 5.00

Just so you know, measured pIC50 for CC[C@](C)(O)c1nc([C@@H]2CC[C@@H](C)N(C(=O)c3ccccc3-n3nccn3)C2)oc1C [Example 45] came out at 5.91

---

molecular target: human orexin-2 receptor (Homo sapiens (Human)); experiment: FLIPR Ca2+ flux assay, hOX2R; type: cell-based; conditions: CHO cells expressing human orexin-2 receptor; agonist 70 pM Ala-6,12 orexin-A
Measured IC50, listed per entry.
Please reply with the bare figure in nM and do not write the unit itself.

COC(=O)C1CC1c1coc([C@@H]2CC[C@@H](C)N(C(=O)c3ccccc3-n3nccn3)C2)n1 (stereo partly shown); 49
C[C@@H]1CC[C@@H](c2ncc(C3CC3)o2)CN1C(=O)c1ccccc1-n1nccn1; 33

Simply: `C[C@@H]1CC[C@@H](c2nc(-c3ccccc3)c(-c3ccccc3)o2)CN1C(=O)c1ccccc1-n1nccn1` , human orexin-2 receptor (Homo sapiens (Human)), IC50 = 515

Readout IC50 for `Cc1oc([C@@H]2CC[C@@H](C)N(C(=O)c3cccnc3OCC(F)F)C2)nc1C(C)(C)O` , test system human orexin-2 receptor (Homo sapiens (Human)), was 14.1

Hey, human orexin-2 receptor (Homo sapiens (Human)) data for `Cc1oc([C@@H]2CC[C@@H](C)N(C(=O)c3ccccc3OC(C)C)C2)nc1C(C)(C)O` : IC50 came out at 20.4

Reading of IC50 for `CC[C@@](C)(O)c1nc([C@@H]2CC[C@@H](C)N(C(=O)c3ccccc3-n3nccn3)C2)oc1C` with human orexin-2 receptor (Homo sapiens (Human)): 31

Record `Cc1oc([C@@H]2CC[C@@H](C)N(C(=O)c3nc(Cl)sc3C(C)C)C2)nc1C(C)(C)O` ; system human orexin-2 receptor (Homo sapiens (Human)); IC50 = 160

---

target: UniProt:O43614; test: FLIPR Ca2+ flux assay, hOX2R; settings: CHO cells expressing human orexin-2 receptor; agonist 70 pM Ala-6,12 orexin-A
pIC50: −log10 of the molar value.
// Not met strictly below 7 in pIC50; Met otherwise

Illustrative cases are given below, each with its answer.
COC(=O)c1nc([C@@H]2CC[C@@H](C)N(C(=O)c3ccccc3-n3nccn3)C2)oc1-c1ccccc1; Not met
Cc1oc([C@@H]2CC[C@@H](C)N(C(=O)c3cccnc3OCC(F)(F)F)C2)nc1C(C)(C)O; Met
Cc1oc([C@@H]2CC[C@@H](C)N(C(=O)c3ccccc3-n3nccn3)C2)nc1[C@H](O)C(F)(F)F; Met
Cc1cccc(-c2coc([C@@H]3CC[C@@H](C)N(C(=O)c4ccccc4-n4nccn4)C3)n2)c1; Not met
C[C@@H]1CC[C@@H](c2nc(C(C)(C)O)c(C(F)(F)F)o2)CN1C(=O)c1ccccc1-n1nccn1; Met

Query: I'd appreciate it if you could say whether `CC[C@](C)(O)c1nc([C@@H]2CC[C@@H](C)N(C(=O)c3cscc3-n3nccn3)C2)oc1C` has pIC50 at least equal to 7.
Reply: Met

Query: Could you please find out whether `CC[C@](C)(O)c1nc([C@@H]2CC[C@@H](C)N(C(=O)c3ccccc3-n3nccn3)C2)oc1C` has pIC50 that meets 7 or exceeds it?
Reply: Met

Query: Has `C[C@@H]1CC[C@@H](c2nc(C3CC3)co2)CN1C(=O)c1ccccc1-n1nccn1` a recorded pIC50 greater than or equal to 7?
Reply: Met

Query: Hello, I need to know if `Cc1oc([C@@H]2CC[C@@H](C)N(C(=O)c3ccccc3-n3nccn3)C2)nc1[C@@H](O)C(F)(F)F` has measured pIC50 not below 7. Thanks!
Reply: Met

Query: Hi, just wondering whether `C[C@@H]1CC[C@@H](c2nc(C#N)c(Br)o2)CN1C(=O)c1ccccc1-n1nccn1` shows pIC50 of 7 or higher.
Reply: Not met

Query: API: above_or_equal(metric=pIC50, cutoff=7) for item `C[C@@H]1CC[C@@H](c2nc(C(N)=O)c(-c3ccccc3)o2)CN1C(=O)c1ccccc1-n1nccn1`
Reply: Not met

Query: Is pIC50 at least 7? Consider `C[C@@H]1CC[C@@H](c2nc(CN(C)C)c(-c3ccccc3)o2)CN1C(=O)c1ccccc1-n1nccn1`
Reply: Not met

Query: hey, is pIC50 for this one >= 7? `Cc1oc([C@@H]2CC[C@@H](C)N(C(=O)c3cccnc3OC(C)C)C2)nc1C(C)(C)O`
Reply: Met

Query: Answer whether pIC50 of `Cc1oc([C@@H]2CC[C@@H](C)N(C(=O)c3ccccc3-n3ncnn3)C2)nc1C(C)(C)O` is greater than or equal to 7.
Reply: Met

Query: Has `C[C@@H]1CC[C@@H](c2nc(-c3ccccc3)co2)CN1C(=O)c1ccccc1-n1nccn1` a recorded pIC50 greater than or equal to 7?
Reply: Met

Query: API: above_or_equal(metric=pIC50, cutoff=7) for item `COCCc1ccccc1C(=O)N1C[C@H](c2nc(C(C)(C)O)c(C)o2)CC[C@H]1C`
Reply: Met

Query: Please tell me: is the compound `C[C@@H]1CC[C@@H](c2nc(C(C)(C)O)co2)CN1C(=O)c1ccccc1-n1nccn1` at or over 7 in terms of pIC50?
Reply: Met

// data source = patent US9828368B2
